# TARGET_DESC: Vasopressin receptor (Rattus norvegicus, UniProt P48974+P30560+Q00788)
# PROTOCOL_NOTES: Antiantidiuretic potency in terms of negative logarithm of the effective doses divided by the estimated volume of distribution
# Format: functional, Urine
Numbered stars: 1 amine (or outer) side, 2 acyl side, 3 side chain; on linkers, the order of the positions; unused ones are H or OH. Bridge positions count the residues as written; N and C are the ends. Square brackets hold non-standard residues; d marks the D form. Peptide text beside a SMILES is read from it. X1 = O=C(CC1(S[*:2])CCCCC1)[*:1]
READOUT_NAME: pA2
Answer as a number with no unit attached.

I am curious: what pA2 value has been reported for CCOc1ccc(C[C@H]2NC(=O)CC3(CCCCC3)SSC[C@@H](C(=O)N3CCC[C@H]3C(=O)N[C@@H](CCCN=C(N)N)C(=O)NCC(=O)NCCN)NC(=O)[C@H](CC(N)=O)NC(=O)[C@H](C(C)C)NC(=O)[C@H](Cc3ccccc3)NC2=O)cc1 ?
7.82

I am curious: what pA2 value has been reported for CCOc1ccc(C[C@H]2NC(=O)CC3(CCCCC3)SSC[C@@H](C(=O)N3CCC[C@H]3C(=O)N[C@@H](CCCN=C(N)N)C(=O)NCCN)NC(=O)[C@H](CC(N)=O)NC(=O)[C@H]([C@@H](C)CC)NC(=O)[C@H](Cc3ccccc3)NC2=O)cc1 ?
8

I am curious: what pA2 value has been reported for CCOc1ccc(C[C@H]2NC(=O)CC3(CCCCC3)SSC[C@@H](C(=O)NCCNC(=O)[C@H](N)CCCN)NC(=O)[C@H](CC(N)=O)NC(=O)[C@H](C(C)C)NC(=O)[C@H](Cc3ccccc3)NC2=O)cc1 ?
7.24

I am curious: what pA2 value has been reported for CCOc1ccc(C[C@H]2NC(=O)CC3(CCCCC3)SSC[C@@H](C(=O)N3CCC[C@H]3C(=O)N[C@@H](CCCN=C(N)N)C(=O)NCC(N)=O)NC(=O)[C@H](CC(N)=O)NC(=O)[C@H](C(C)C)NC(=O)[C@H](Cc3ccccc3)NC2=O)cc1 ([dY](Et)FVNCPRG-NH2; linker N-5 via X1) ?
7.81

----------
# TARGET_DESC: Vasopressin receptor (Rattus norvegicus) (UniProt P48974+P30560+Q00788)
# PROTOCOL_NOTES: Antivasopressor potency in terms of blood pressure response in rats anesthetized with urethane and pretreated with phenoxybenzamine
# Assay type: functional
READOUT_NAME: ED (nM/kg)
Reply numerically in nM/kg, unit not repeated.

I am curious: what ED value has been reported for CCOc1ccc(C[C@H]2NC(=O)CC3(CCCCC3)SSC[C@H](C(=O)NCCNC(=O)CN)NC(=O)[C@@H](CC(N)=O)NC(=O)[C@H](C(C)C)NC(=O)[C@@H](Cc3ccccc3)NC2=O)cc1 ?
1.66

I am curious: what ED value has been reported for CC[C@H](C)[C@H]1NC(=O)CC2(CCCCC2)SSC[C@H](C(=O)NCCNC(=O)C(N)CCCN=C(N)N)NC(=O)[C@@H](CC(N)=O)NC(=O)[C@H](C(C)C)NC(=O)[C@@H](Cc2ccccc2)NC1=O (stereo not given in full) ?
47

I am curious: what ED value has been reported for CCOc1ccc(C[C@H]2NC(=O)CC3(CCCCC3)SSC[C@@H](C(=O)N3CCC[C@H]3C(=O)N[C@@H](CCCN=C(N)N)C(=O)NCCN)NC(=O)[C@H](CC(N)=O)NC(=O)[C@H]([C@@H](C)CC)NC(=O)[C@H](Cc3ccccc3)NC2=O)cc1 ?
0.32

I am curious: what ED value has been reported for CCOc1ccc(C[C@H]2NC(=O)CC3(CCCCC3)SSC[C@H](C(=O)N[C@H](CCCN=C(N)N)C(=O)NCC(=O)NCCN)NC(=O)[C@@H](CC(N)=O)NC(=O)[C@H](C(C)C)NC(=O)[C@@H](Cc3ccccc3)NC2=O)cc1 ?
0.59

I am curious: what ED value has been reported for CCOc1ccc(C[C@H]2NC(=O)CC3(CCCCC3)SSC[C@H](C(=O)NCCNC(=O)[C@H](N)CCCCN)NC(=O)[C@@H](CC(N)=O)NC(=O)[C@H](C(C)C)NC(=O)[C@@H](Cc3ccccc3)NC2=O)cc1 ?
0.82

----------
# TARGET_DESC: Vasopressin receptor (Rattus norvegicus) (UniProt P48974+P30560+Q00788)
# PROTOCOL_NOTES: Antivasopressor potency in terms of blood pressure response in rats anesthetized with urethane and pretreated with phenoxybenzamine
# Type: functional
Please respond with reported ED for every item in the list.
Reply numerically in nM/kg, unit not repeated.

I am curious: what ED value has been reported for CCOc1ccc(C[C@H]2NC(=O)CC3(CCCCC3)SSC[C@H](C(=O)N3CCCC3C(=O)NCCNC(=O)[C@@H](N)CCCN=C(N)N)NC(=O)[C@@H](CC(N)=O)NC(=O)[C@H](C(C)C)NC(=O)[C@@H](Cc3ccccc3)NC2=O)cc1 (some centres undefined) ?
0.48

I am curious: what ED value has been reported for CCOc1ccc(C[C@H]2NC(=O)CC3(CCCCC3)SSC[C@H](C(=O)NCCNC(=O)[C@@H](N)CCCN)NC(=O)[C@@H](CC(N)=O)NC(=O)[C@H](C(C)C)NC(=O)[C@@H](Cc3ccccc3)NC2=O)cc1 ?
0.59

I am curious: what ED value has been reported for CCOc1ccc(C[C@H]2NC(=O)CC3(CCCCC3)SSC[C@@H](C(=O)N3CCC[C@H]3C(=O)N[C@@H](CCCN=C(N)N)C(=O)NCC(N)=O)NC(=O)[C@H](CC(N)=O)NC(=O)[C@H]([C@@H](C)CC)NC(=O)[C@H](Cc3ccccc3)NC2=O)cc1 ?
1.2

I am curious: what ED value has been reported for CC[C@H](C)[C@@H]1NC(=O)[C@H](Cc2ccccc2)NC(=O)[C@@H](Cc2ccccc2)NC(=O)CC2(CCCCC2)SSC[C@@H](C(=O)N2CCC[C@H]2C(=O)N[C@@H](CCCN=C(N)N)C(=O)NCC(=O)NCCN)NC(=O)[C@H](CC(N)=O)NC1=O ?
1.8

I am curious: what ED value has been reported for CCOc1ccc(C[C@@H]2NC(=O)CC3(CCCCC3)SSC[C@H](C(=O)NCCNC(=O)C(N)CCCN=C(N)N)NC(=O)[C@@H](CC(N)=O)NC(=O)[C@H](C(C)C)NC(=O)[C@@H](Cc3ccccc3)NC2=O)cc1 (some centres undefined) ?
0.76

I am curious: what ED value has been reported for CCOc1ccc(C[C@H]2NC(=O)CC3(CCCCC3)SSC[C@@H](C(=O)N3CCC[C@H]3C(=O)N[C@@H](CCCN=C(N)N)C(=O)NCCN)NC(=O)[C@H](CC(N)=O)NC(=O)[C@H](C(C)C)NC(=O)[C@H](Cc3ccccc3)NC2=O)cc1 ?
0.69

I am curious: what ED value has been reported for CCOc1ccc(C[C@H]2NC(=O)CC3(CCCCC3)SSC[C@H](C(=O)N3CCCC3C(=O)N[C@@H](CCCN=C(N)N)C(=O)NCCNC(=O)[C@H](N)CCCN=C(N)N)NC(=O)[C@@H](CC(N)=O)NC(=O)[C@H]([C@H](C)CC)NC(=O)[C@@H](Cc3ccccc3)NC2=O)cc1 (some centres undefined) ?
0.36

I am curious: what ED value has been reported for CCOc1ccc(C[C@H]2NC(=O)CC3(CCCCC3)SSC[C@H](C(=O)NCCN)NC(=O)[C@@H](CC(N)=O)NC(=O)[C@H](C(C)C)NC(=O)[C@@H](Cc3ccccc3)NC2=O)cc1 ?
0.47

I am curious: what ED value has been reported for CCOc1ccc(C[C@H]2NC(=O)CC3(CCCCC3)SSC[C@H](C(=O)N3CCCC3C(=O)NCCNC(=O)[C@@H](N)CCCN)NC(=O)[C@@H](CC(N)=O)NC(=O)[C@H](C(C)C)NC(=O)[C@@H](Cc3ccccc3)NC2=O)cc1 (some centres undefined) ?
0.95

----------
# TARGET_DESC: Vasopressin receptor (Rattus norvegicus) (UniProt P48974+P30560+Q00788)
# PROTOCOL_NOTES: Antiantidiuretic potency in terms of measuring changes in urine flow in water-loaded rats under ethanol anesthesia
# Format: functional
Numbered stars: 1 amine (or outer) side, 2 acyl side, 3 side chain; on linkers, the order of the positions; unused ones are H or OH. Bridge positions count the residues as written; N and C are the ends. Square brackets hold non-standard residues; d marks the D form. Peptide text beside a SMILES is read from it. X1 = O=C(CC1(S[*:2])CCCCC1)[*:1]
READOUT_NAME: ED (nM/kg)
Reply numerically in nM/kg, unit not repeated.

I am curious: what ED value has been reported for CC(C)[C@@H]1NC(=O)[C@@H](Cc2ccccc2)NC(=O)[C@@H](Cc2ccccc2)NC(=O)CC2(CCCCC2)SSC[C@H](C(=O)NCCNC(=O)C(N)CCCN=C(N)N)NC(=O)[C@@H](CC(N)=O)NC1=O (stereo partly specified) ?
8.4

I am curious: what ED value has been reported for CC[C@H](C)[C@@H]1NC(=O)[C@H](Cc2ccccc2)NC(=O)[C@@H](Cc2ccccc2)NC(=O)CC2(CCCCC2)SSC[C@@H](C(=O)N2CCC[C@H]2C(=O)N[C@@H](CCCN=C(N)N)C(=O)NCC(N)=O)NC(=O)[C@H](CC(N)=O)NC1=O ([dF]FINCPRG-NH2; linker N-5 via X1) ?
0.46

I am curious: what ED value has been reported for CCOc1ccc(C[C@H]2NC(=O)CC3(CCCCC3)SSC[C@@H](C(=O)N3CCC[C@H]3C(=O)N[C@@H](CCCN=C(N)N)C(=O)NCCN)NC(=O)[C@H](CC(N)=O)NC(=O)[C@H](C(C)C)NC(=O)[C@H](Cc3ccccc3)NC2=O)cc1 ?
1.1

I am curious: what ED value has been reported for CC[C@H](C)[C@@H]1NC(=O)[C@H](Cc2ccccc2)NC(=O)[C@@H](Cc2ccccc2)NC(=O)CC2(CCCCC2)SSC[C@@H](C(=O)N2CCC[C@H]2C(=O)N[C@@H](CCCN=C(N)N)C(=O)NCCN)NC(=O)[C@H](CC(N)=O)NC1=O ?
0.55

I am curious: what ED value has been reported for CCOc1ccc(C[C@H]2NC(=O)CC3(CCCCC3)SSC[C@@H](C(=O)N3CCC[C@H]3C(=O)N[C@@H](CCCN=C(N)N)C(=O)NCCN)NC(=O)[C@H](CC(N)=O)NC(=O)[C@H]([C@@H](C)CC)NC(=O)[C@H](Cc3ccccc3)NC2=O)cc1 ?
0.77

I am curious: what ED value has been reported for CCOc1ccc(C[C@H]2NC(=O)CC3(CCCCC3)SSC[C@H](C(=O)N3CCCC3C(=O)N[C@@H](CCCN=C(N)N)C(=O)NCCNC(=O)[C@H](N)CCCN=C(N)N)NC(=O)[C@@H](CC(N)=O)NC(=O)[C@H]([C@H](C)CC)NC(=O)[C@@H](Cc3ccccc3)NC2=O)cc1 (stereo partly specified) ?
0.57
